system: hERG channel (Homo sapiens, UniProt Q12809)
Construct: expressed in transfected cells; host or cells: CHO (Chinese hamster ovary)
Sequence (Q12809 whole entry): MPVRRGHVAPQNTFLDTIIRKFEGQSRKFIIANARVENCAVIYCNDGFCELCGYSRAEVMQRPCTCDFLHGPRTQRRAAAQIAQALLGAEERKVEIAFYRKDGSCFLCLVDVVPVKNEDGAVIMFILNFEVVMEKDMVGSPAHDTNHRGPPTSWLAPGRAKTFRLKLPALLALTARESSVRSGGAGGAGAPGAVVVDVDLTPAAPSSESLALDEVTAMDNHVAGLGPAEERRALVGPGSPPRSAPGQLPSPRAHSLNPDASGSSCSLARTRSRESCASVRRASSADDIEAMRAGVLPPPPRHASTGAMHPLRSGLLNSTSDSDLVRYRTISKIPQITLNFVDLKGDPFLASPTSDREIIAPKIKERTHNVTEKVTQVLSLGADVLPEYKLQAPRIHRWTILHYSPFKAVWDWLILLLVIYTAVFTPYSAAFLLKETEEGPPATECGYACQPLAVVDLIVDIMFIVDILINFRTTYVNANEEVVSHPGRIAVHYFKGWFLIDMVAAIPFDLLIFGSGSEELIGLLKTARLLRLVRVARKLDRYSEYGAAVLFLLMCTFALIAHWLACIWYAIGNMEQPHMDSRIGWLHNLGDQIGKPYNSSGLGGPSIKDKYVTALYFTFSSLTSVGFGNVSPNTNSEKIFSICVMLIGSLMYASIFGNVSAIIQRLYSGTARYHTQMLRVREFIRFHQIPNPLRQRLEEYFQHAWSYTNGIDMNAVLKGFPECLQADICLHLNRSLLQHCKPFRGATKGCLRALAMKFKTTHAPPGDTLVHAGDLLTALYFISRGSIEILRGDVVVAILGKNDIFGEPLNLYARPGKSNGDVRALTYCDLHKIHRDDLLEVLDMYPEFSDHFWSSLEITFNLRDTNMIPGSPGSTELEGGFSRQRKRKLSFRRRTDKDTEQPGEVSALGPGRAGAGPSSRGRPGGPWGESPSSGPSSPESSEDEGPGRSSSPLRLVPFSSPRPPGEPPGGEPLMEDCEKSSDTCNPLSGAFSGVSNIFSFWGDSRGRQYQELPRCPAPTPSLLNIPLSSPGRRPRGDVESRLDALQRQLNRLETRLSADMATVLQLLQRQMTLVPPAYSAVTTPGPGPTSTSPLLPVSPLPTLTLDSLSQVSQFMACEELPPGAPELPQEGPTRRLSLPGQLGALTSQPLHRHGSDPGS
experimental.details: hERG channel inhibition assay (patch-clamp, CHO hERG cells)
Format: cell-based
measurement.context: safety ratio; TLR9 IC50 of ER compounds from Table 1
result.type: hERG IC20 / TLR9 IC50

* C[C@@H]1CN(c2ccc(C#N)c3ncccc23)C[C@H](CN2CCN(c3ccccn3)CC2)O1 [ER-888285, reference compound] | 0.5
* C[C@@H]1CN(c2ccc(C#N)c3ncccc23)C[C@H](CN2CCN(c3ccncc3)CC2)O1 [ER-888286, reference compound] | 0.2
* C[C@@H]1CN(c2ccc(C#N)c3ncccc23)C[C@H](CN2CCN(c3ccc4c(c3)CNCC4)CC2)O1 [Example 9] | 80.4

* * *

system: hTLR7 (Homo sapiens)
Sequence (Q9NYK1 27-1049): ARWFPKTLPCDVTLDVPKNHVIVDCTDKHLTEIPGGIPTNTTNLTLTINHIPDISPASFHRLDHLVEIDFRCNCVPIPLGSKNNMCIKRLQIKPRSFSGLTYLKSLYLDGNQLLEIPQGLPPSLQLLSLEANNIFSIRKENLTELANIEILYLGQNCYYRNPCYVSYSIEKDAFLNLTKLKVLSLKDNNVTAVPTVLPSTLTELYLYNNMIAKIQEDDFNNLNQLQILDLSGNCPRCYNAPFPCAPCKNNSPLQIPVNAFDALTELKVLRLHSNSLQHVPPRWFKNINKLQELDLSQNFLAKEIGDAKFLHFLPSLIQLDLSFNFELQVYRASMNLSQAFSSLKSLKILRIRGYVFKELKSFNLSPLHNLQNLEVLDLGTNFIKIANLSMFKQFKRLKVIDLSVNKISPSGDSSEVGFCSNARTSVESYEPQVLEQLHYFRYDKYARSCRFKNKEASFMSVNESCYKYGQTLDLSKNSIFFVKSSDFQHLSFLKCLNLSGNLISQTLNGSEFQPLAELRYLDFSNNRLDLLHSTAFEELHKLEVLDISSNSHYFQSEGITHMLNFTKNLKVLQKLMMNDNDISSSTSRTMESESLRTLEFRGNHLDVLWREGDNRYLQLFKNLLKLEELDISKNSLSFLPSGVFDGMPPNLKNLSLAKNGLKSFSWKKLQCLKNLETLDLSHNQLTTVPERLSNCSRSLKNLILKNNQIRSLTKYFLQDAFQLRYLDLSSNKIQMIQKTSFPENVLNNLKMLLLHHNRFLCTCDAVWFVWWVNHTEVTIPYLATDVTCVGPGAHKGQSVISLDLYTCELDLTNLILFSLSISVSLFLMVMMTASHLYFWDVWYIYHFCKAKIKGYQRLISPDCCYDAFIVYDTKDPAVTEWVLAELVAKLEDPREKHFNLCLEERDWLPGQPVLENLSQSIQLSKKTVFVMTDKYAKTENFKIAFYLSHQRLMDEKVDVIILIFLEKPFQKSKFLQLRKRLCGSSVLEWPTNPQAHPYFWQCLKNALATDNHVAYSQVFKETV
experimental.details: HEK293-Blue-hTLR-7 cells assay (SEAP reporter, R848 stimulation)
Assay type: cell-based
Design: host or cells: HEK293 (HEK-Blue)
measurement.context: HEK293-Blue-hTLR7 cells, R848, 20 hrs; read-out: HEK/hTLR7 IC50
pIC50: −log10 of the molar value.
result.type: pIC50

- C[C@@H]1CN(c2ccc(C#N)c3nccnc23)C[C@H](CN2CCN(c3cc4c(cn3)[C@H](C)NCC4)CC2)O1 (single isomer, unassigned): 8.30
- CC1NCc2ncc(N3CCN(C[C@H]4CN(c5ccc(C#N)c6ncccc56)C[C@@H](C)O4)CC3)cc21 (stereo partly shown): 7.55
- C[C@@H]1CN(c2ccc(C#N)c3ncccc23)C[C@H](CN2CC3(C2)CN(c2ccc4c(n2)CCNC4)CCO3)O1: 8.30
- C[C@@H]1Cc2cc(N3CCN(C[C@H]4CN(c5ccc(C#N)c6nccnc56)C[C@@H](C)O4)CC3)ncc2CN1 (single isomer, unassigned): 8.22
- COC1CNCc2ccc(N3CCN(C[C@H]4CN(c5ccc(C#N)c6ncccc56)C[C@@H](C)O4)CC3)cc21 (stereo partly shown): 7.80
- C[C@@H]1CN(c2ccc(C#N)c3ncccc23)C[C@H](CN2CCN(c3cnc4c(n3)CNCC4)CC2)O1: 8.15
- C[C@@H]1CN(c2ccc(C#N)c3ncccc23)C[C@H](CN2CCN(c3ccc4c(c3)C(O)CN(C)C4)CC2)O1 (stereo partly shown): 7.39
- C[C@@H]1CN(c2ccc(C#N)c3ncccc23)C[C@H](CN2CC3[C@H](C2)OCCN3c2ccc3c(n2)CCNC3)O1 (stereo in doubt): 8.52
- C[C@@H]1CN(c2ccc(C#N)c3ncccc23)C[C@H](CN2CCN(c3ccc4c(c3)CNC4)C(CO)C2)O1 (stereo partly shown): 7.24
- C[C@@H]1CN(c2ccc(C#N)c3ncccc23)C[C@H](CN2CCN(c3cnc4c(c3)CN[C@@H]4C)CC2)O1 (single isomer, unassigned): 7.89
- C[C@@H]1CN(c2ccc(C#N)c3ncccc23)C[C@H](CN2CCN(c3ccc4c(n3)CN[C@H]4C)CC2)O1 (single isomer, unassigned): 7.96
- [2H]c1ccc2c(N3C[C@H](CN4CCN(c5ccc6c(n5)CN[C@@H]6C)CC4)O[C@H](C)C3)ccc(C#N)c2n1 (single isomer, unassigned): 8.10
- C[C@@H]1CN(c2ccc(C#N)c3ncccc23)C[C@H](CN2CCN(c3cnc4c(c3)CNCC4)C(C)(C)C2)O1: 7.92
- C[C@@H]1CN(c2ccc(C#N)c3ncccc23)C[C@H](CN2CCN(c3cccc4c3CNC4)CC2)O1: 8.40
- C[C@@H]1CN(c2ccc(C#N)c3ncccc23)C[C@H](CN2CCN(c3cnc4c(n3)CCNC4)CC2)O1: 7.96
- C[C@@H]1CN(c2ccc(C#N)c3ncccc23)C[C@H](CN2CC3(C2)CN(c2ccc4c(c2)CCNC4)CCO3)O1: 7.96
- C[C@@H]1CN(c2ccc(C#N)c3ncccc23)C[C@H](CN2CC3(C2)CN(c2cnc4c(c2)CNCC4)CCO3)O1: 7.92
- C[C@@H]1CN(c2ccc(C#N)c3ncccc23)C[C@H](CN2CCN(c3cc4c(cn3)CCN[C@H]4C)CC2)O1 (single isomer, unassigned): 8.10
- C[C@@H]1CN(c2ccc(C#N)c3ncccc23)C[C@H](CN2CCN(c3ccc4c(n3)[C@@H](C)NC4)CC2)O1 (single isomer, unassigned): 8.15
- C[C@@H]1Cc2cnc(N3CCN(C[C@H]4CN(c5ccc(C#N)c6ncccc56)C[C@@H](C)O4)CC3)cc2CN1 (single isomer, unassigned): 7.96
- C[C@@H]1CN(c2ccc(C#N)c3ncccc23)C[C@H](CN2CCN(c3ccc(Cl)cc3)CC2)O1 [Example R2, reference compound]: 6.68
- COc1ccc(N2CCN(C[C@H]3CN(c4ccc(C#N)c5ncccc45)C[C@@H](C)O3)CC2)cc1 [Example R1, reference compound]: 7.02
- C[C@@H]1CN(c2ccc(C#N)c3ncccc23)C[C@H](CN2CC3(CCN3c3ccc4c(n3)CCNC4)C2)O1: 7.59
